# measured on: Trypanosoma cruzi glucokinase (TcGlcK) (Trypanosoma cruzi)
# Sequence (Q4E4E1 1-376): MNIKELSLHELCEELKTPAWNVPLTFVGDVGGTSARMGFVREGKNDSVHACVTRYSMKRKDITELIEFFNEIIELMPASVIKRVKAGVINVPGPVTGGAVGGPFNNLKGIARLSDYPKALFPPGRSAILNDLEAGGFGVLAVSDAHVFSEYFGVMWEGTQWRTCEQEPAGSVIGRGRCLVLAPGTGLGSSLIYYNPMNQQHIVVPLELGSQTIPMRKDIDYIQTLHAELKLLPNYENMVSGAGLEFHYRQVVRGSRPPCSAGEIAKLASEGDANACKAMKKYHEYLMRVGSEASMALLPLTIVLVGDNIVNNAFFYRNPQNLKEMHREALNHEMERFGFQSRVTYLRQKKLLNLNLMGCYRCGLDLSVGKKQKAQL
experimental endpoint: Ki (µM)

compound=COc1ccc(OC)c(/N=C/c2c(O)c(O)c(C(C)C)c3cc(C)c(-c4c(C)cc5c(C(C)C)c(O)c(O)c(/C=N/c6cc(OC)ccc6OC)c5c4O)c(O)c23)c1 measured_value=30.5
compound="Cc1cc2c(C(C)C)c(O)c(O)c(/C=N/CCOc3ccc4c(c3)CCC4)c2c(O)c1-c1c(C)cc2c(C(C)C)c(O)c(O)c(/C=N/CCOc3ccc4c(c3)CCC4)c2c1O (atropisomer, axis not shown)" measured_value=98.9
compound="Cc1cc2c(c(O)c1-c1c(C)cc3c(c1O)/C(=C/Nc1ccccc1O)C(=O)C(O)=C3C(C)C)/C(=C/Nc1ccccc1O)C(=O)C(O)=C2C(C)C (atropisomer, axis not shown)" measured_value=468
compound="Cc1cc2c(C(C)C)c(O)c(O)c(/C=N/Nc3nnnn3-c3ccccc3)c2c(O)c1-c1c(C)cc2c(C(C)C)c(O)c(O)c(/C=N/Nc3nnnn3-c3ccccc3)c2c1O (atropisomer, axis not shown)" measured_value=53.3
compound=Cc1cc(C=O)c(O)c(C=O)c1 measured_value=99.1
compound="Cc1cc2c(c(O)c1-c1c(C)cc3c(c1O)/C(=C/Nc1c(C)n(C)n(-c4ccccc4)c1=O)C(=O)C(O)=C3C(C)C)/C(=C/Nc1c(C)n(C)n(-c3ccccc3)c1=O)C(=O)C(O)=C2C(C)C (atropisomer, axis not shown)" measured_value=9.5

The reported measurements were obtained from patent US20250114359A1.
